Target: T1, human CCR8 (human, UniProt P51685 1-355)
T1 construct: the cells are named under assay; also called hCCR8
Assay: flow cytometry, hCCR8 transfected CHOK1 cells
Property Label: % positive cells
Hi, when you answer, please include the unit after the number. Thanks!

// worked examples, % positive cells included
Binder: 3-32 (antibody, V domains shown) VH: EVQLVESGGGLVQPKGSLKLSCAASGFTFNAYAMNWVRQAPGKGLEWLARIRSKSNNYATYYADSVKDRFTISRDDSQSMFYLQMNNLKSEDTAMYYCVRGREAYYRYDGGYYAMDYWGQGTSVTVSS VL: EIVMTQAALSAPVTPGESVSMSCRSSKSLLHSNGNTYLYWFLQRPGQSPQLLIYRMSNLASGVPDRFSGSGSGTAFTLRISRVEAEDVGVYYCMQHLEYPFTFGSGTKLEIK
% positive cells: 81.8%
--
Binder: 3-40 (antibody, V domains shown) VH: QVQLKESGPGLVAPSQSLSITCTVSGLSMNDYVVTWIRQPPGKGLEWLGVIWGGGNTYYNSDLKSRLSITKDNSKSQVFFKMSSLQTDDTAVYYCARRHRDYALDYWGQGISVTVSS VL: ENVLTQSPAIMSASPGEKVTMTCRASSSVSSSYLHWYQQKSGASPKLWIYSTSNLASGVPARFSGSGSGTSYSLTISSVEAEDAATYYCQQYSGYPYTFGGGTKLEIK
% positive cells: 69.9%
--
Binder: 3-43 (antibody, V domains shown) VH: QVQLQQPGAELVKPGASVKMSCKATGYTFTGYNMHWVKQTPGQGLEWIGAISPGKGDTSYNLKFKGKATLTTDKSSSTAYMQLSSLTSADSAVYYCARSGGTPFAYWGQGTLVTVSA VL: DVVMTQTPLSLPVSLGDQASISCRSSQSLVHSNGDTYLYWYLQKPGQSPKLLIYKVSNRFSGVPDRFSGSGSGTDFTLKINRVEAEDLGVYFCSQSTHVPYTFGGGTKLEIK
% positive cells: 76.2%
--
Binder: 3-12 (antibody, V domains shown) VH: QVQLQQPGAVLVKPGASVKMSCKASGYTFTSYNMHWLKQTPGQGLEWIGAIAPGKGDTSHNQKFKGKATLTADKSSSTAYMQLSSLTSEDSAVYYCARRNNYEPFVYWGQGTLVTVSA VL: DIVFTQSPASLAVSLGQRATISCRASESVEYYGTSLMQWYQQKPGQPPKLLIYAASNVESGVPARFSGSGSGTDFSLNIHPVEADDIAMYFCQQSRKVPFTFGSGTKLEIK
% positive cells: 87.8%

Could you tell me which % positive cells is on file for 3-2 (antibody, V domains shown) VH: EVQLVESGGGLVKPGGSLKLSCAASGFTFSSYAMSWVRQTPEKRLEWVATINSGGSYTFYPDSVKGRFTISRDNAKNTLYLQMSSLRSVDTAIYYCARVSGYDERFAYWGQGTLVTVSA VL: DVLMTQTPLSLPVSLGAQASISCRSSQSIVHSNGNTYLEWYLQKPGQSPKLLIYKVSNRFSGVPDRFSGSGSGTDFTLKLSRVEAEDLGVYYCFQGSHVPPTFGGGTKLEIK ? 51.2%

Could you tell me which % positive cells is on file for 3-45 (antibody, V domains shown) VH: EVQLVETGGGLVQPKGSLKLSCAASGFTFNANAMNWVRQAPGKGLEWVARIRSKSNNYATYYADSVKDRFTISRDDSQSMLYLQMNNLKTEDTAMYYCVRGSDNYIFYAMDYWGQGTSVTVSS VL: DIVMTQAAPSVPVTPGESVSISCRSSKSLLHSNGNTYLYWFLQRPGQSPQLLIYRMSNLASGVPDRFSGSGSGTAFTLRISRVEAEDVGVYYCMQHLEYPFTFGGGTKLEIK ? 67.8%

Could you tell me which % positive cells is on file for 3-49 (antibody, V domains shown) VH: EVQLQQSGPELVKPGASVKISCKTSGYTFTEYTMHWVKQSHGKSLEWIGGINPNNGDTNYNQKFMGKATLTVDKSSSTAYMELRSLTSEDSAVYYCVRRLLRRGAMDYWGQGTSVTVSS VL: DIVLTQSPASLAVSLGQRATISCRASENVEYYGTSLMQWFQQKPGQPPKLLIYAASNVDSGVPARFSGSGSGTDFSLNIHPVEEDDIAMYFCQQSRKVPWTFGGGTKLDIK ? 73.4%

Could you tell me which % positive cells is on file for 3-53 (antibody, V domains shown) VH: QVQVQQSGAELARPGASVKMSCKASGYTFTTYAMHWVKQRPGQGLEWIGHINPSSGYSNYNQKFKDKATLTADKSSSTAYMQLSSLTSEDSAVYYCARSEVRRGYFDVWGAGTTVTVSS VL: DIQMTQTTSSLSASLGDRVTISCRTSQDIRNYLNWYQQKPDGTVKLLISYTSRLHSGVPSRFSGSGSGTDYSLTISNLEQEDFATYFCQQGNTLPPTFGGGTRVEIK ? 77%

Could you tell me which % positive cells is on file for 3-11 (antibody, V domains shown) VH: EVQLVESGGGLVQPKGSLKLSCAASGFTFNTYAMNWVRQAPGKGLEWVARIRSKSNNYATYYADSVKDRFTISRDDSQSMLYLQMNNLKTEDTAMYYCVRGREAYYRYDGGYYAMDYWGQGTSVTVSS VL: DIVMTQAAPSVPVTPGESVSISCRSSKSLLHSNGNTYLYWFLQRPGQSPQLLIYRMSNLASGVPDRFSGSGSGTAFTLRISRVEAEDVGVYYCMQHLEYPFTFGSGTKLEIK ? 90.6%

Could you tell me which % positive cells is on file for 3-52 (antibody, V domains shown) VH: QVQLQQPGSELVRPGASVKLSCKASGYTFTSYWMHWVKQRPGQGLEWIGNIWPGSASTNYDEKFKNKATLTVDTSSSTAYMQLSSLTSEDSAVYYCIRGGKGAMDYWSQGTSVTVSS VL: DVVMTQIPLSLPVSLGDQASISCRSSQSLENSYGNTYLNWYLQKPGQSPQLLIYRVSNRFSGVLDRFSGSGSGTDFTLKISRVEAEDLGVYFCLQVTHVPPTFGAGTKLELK ? 81.6%
